# System: 931267-113-T-J1-PDC multicell spheroid viability;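 further: viability read 7 days after compound addition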
# assay procedure: Anticancer human tumor 931267-113-T-J1-PDC patient-derived colon adenocarcinoma cell line growth inhibition [PI3K]
# condition parameters: second compound 0.00316 µM; first compound 0.1 µM; hits give low values
Listed next: entries and their corresponding viability, T/C.
Supply the numeric figure in %, leaving out any unit text.

In the examples that follow, each entry is paired with its recorded viability, T/C.
compound="CC1(C)CCC(Nc2ncc(C(F)(F)F)c(-c3c[nH]c4c(P(C)(C)=O)c(C#N)ccc34)n2)CN1 (stereo not drawn) + COc1c(OCCCN2CCOCC2)ccc2c3n(c(=NC(=O)c4cnc(N)nc4)nc12)CCN3" measured_parameter="viability, T/C" reported_measurement=94.2
compound="CC(C)NCC(C(=O)N1CCN(c2ncnc3c2C(C)CC3O)CC1)c1ccc(Cl)cc1 (stereo not drawn) + COc1c(OCCCN2CCOCC2)ccc2c3n(c(=NC(=O)c4cnc(N)nc4)nc12)CCN3" measured_parameter="viability, T/C" reported_measurement=96.2

Turning now to a further compound:
Data request: State its viability, T/C on 931267-113-T-J1-PDC multicell spheroid viability: Cn1nccc1Nc1nccc(-c2ccn(C(CO)c3ccc(Cl)c(F)c3)c(=O)c2)n1 (stereo not drawn) + CC(Nc1ccc2c(c1)OCCn1cc(N3C(=O)OCC3C(F)F)nc1-2)C(N)=O
Data returned: 98.6
